Catalogue of pKi readings, one per entry.
Molecular target: Fructose-bisphosphate aldolase A (Oryctolagus cuniculus)
Sequence (P00883 whole entry): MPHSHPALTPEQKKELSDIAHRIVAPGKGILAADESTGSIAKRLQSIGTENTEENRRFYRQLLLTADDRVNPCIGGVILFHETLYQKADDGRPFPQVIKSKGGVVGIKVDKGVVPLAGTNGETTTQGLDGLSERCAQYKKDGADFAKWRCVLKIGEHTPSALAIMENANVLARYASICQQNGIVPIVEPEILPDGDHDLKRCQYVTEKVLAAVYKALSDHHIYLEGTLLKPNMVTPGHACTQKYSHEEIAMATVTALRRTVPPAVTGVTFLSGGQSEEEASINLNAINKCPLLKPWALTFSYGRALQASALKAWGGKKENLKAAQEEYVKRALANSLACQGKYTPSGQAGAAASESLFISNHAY
Formally, pKi is defined as -log10 of the concentration c, with c in mol/L.

compound: CCCCCC(=O)OCCCCN(O)C(=O)COP(=O)(O)O
testValue: 3.07

Let us examine a further case.
Give the measured pKi for O=C([C@H](O)COP(=O)(O)O)[C@H](O)C(O)COP(=O)(O)O (some centres not stated)
4.82
